- System: A375 multi-cell spheroids with HUVEC/MSC, viability
- procedure_summary: Anticancer human tumor A375 cell line growth inhibition [GQUAD];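 further: spheroids exposed to compounds for seven days before readout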
- condition_label: second compound 10 µM; first compound 0.1 µM; hits give low values
# viability, T/C values compiled below

Answered cases to consult:
• Cc1cccc(N(C)C(=O)C2C(O)CCN2c2nc(C)cc(C(F)(F)F)c2C#N)c1 (stereo not given) + Cc1cnc(CNC(=O)c2c(=O)c3ccc(N4CCCN(C)CC4)nc3n3c2sc2ccccc23)cn1 = 29.8%
• COc1ccc([C@@H](O)c2cc(-c3ncnc4cc(N5CCOCC5)ccc34)c(F)cc2Cl)nn1 + CN(C)c1ccc(Nc2c3ccc(NC(=O)CCN4CCCC4)cc3nc3cc(NC(=O)CCN4CCCC4)ccc23)cc1 = 93.6%
• O=C(NO)c1cnc(N2CCN(S(=O)(=O)c3ccc4ccccc4c3)CC2)nc1 + Cc1[nH]c2ccc(F)cc2c1-c1nc2c3cccnc3c3ncccc3c2[nH]1 = 105%
• COc1ncnc(C2CC2)c1-c1ncc2cnn(Cc3ccc(-c4nc(C(F)(F)F)cn4C(C)C)cc3)c2n1 + Cc1cnc(CNC(=O)c2c(=O)c3ccc(N4CCCN(C)CC4)nc3n3c2sc2ccccc23)cn1 = 26%

Turning to the following molecule.
Query string: Notebook entry, A375 multi-cell spheroids with HUVEC/MSC, viability assay: viability, T/C of O=c1[nH]cc(F)c(=O)[nH]1 + CN(C)c1ccc(Nc2c3ccc(NC(=O)CCN4CCCC4)cc3nc3cc(NC(=O)CCN4CCCC4)ccc23)cc1 = ?
Result string: 94.4%

* * *

- Tested on: A375 multi-cell spheroids with HUVEC/MSC, viability
- procedure_summary: Anticancer human tumor A375 cell line growth inhibition [GQUAD];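 further: spheroids exposed to compounds for seven days before readout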
- condition_label: second compound 1 µM; first compound 3.16 µM; hits give low values
- Text: DNA G-quadruplex Stabilizer Agents in Combinations in Complex Spheroids A high-throughput screen of multi-cell type tumor spheroids was designed to identify active combinations of DNA G-quadruplex stabilizer agents and targeted small molecules. […] Compounds. […] If the clinical Cmax for an agent had not been determined, the highest concentration tested was 10 microM. […]
observation_type: viability, T/C (%)
Express the result in % but write the number alone.

A selection of reference data follows.
* Cc1cccc(N(C)C(=O)C2C(O)CCN2c2nc(C)cc(C(F)(F)F)c2C#N)c1 (stereo unspecified) + Cc1cnc(CNC(=O)c2c(=O)c3ccc(N4CCCN(C)CC4)nc3n3c2sc2ccccc23)cn1 | 49.2
* CC1COCCN1c1cc(C2(S(C)(=N)=O)CC2)nc(-c2ccnc3[nH]ccc23)n1 (stereo unspecified) + Cc1[nH]c2ccc(F)cc2c1-c1nc2c3cccnc3c3ncccc3c2[nH]1 | 82
* COc1ccc([C@@H](O)c2cc(-c3ncnc4cc(N5CCOCC5)ccc34)c(F)cc2Cl)nn1 + Cc1[nH]c2ccc(F)cc2c1-c1nc2c3cccnc3c3ncccc3c2[nH]1 | 98.2
* COc1cc(C2c3cc4c(cc3C(OC3OC5COC(C)OC5C(O)C3O)C3COC(=O)C23)OCO4)cc(OC)c1O (stereo unspecified) + CN(C)c1ccc(Nc2c3ccc(NC(=O)CCN4CCCC4)cc3nc3cc(NC(=O)CCN4CCCC4)ccc23)cc1 | 30.9
* CC(C)n1c(=O)n(C)c2cnc3cc(F)c(-c4ccc(OCCCN5CCCCC5)nc4)cc3c21 + Cc1[nH]c2ccc(F)cc2c1-c1nc2c3cccnc3c3ncccc3c2[nH]1 | 116
* CC1COCCN1c1cc(-c2ccnn2C)c2ccnc(-c3ccn[nH]3)c2n1 (stereo unspecified) + CN(C)c1ccc(Nc2c3ccc(NC(=O)CCN4CCCC4)cc3nc3cc(NC(=O)CCN4CCCC4)ccc23)cc1 | 11.2

Query string: Item under review: CC1COCCN1c1cc(-c2ccnn2C)c2ccnc(-c3ccn[nH]3)c2n1 (stereo unspecified) + Cc1cnc(CNC(=O)c2c(=O)c3ccc(N4CCCN(C)CC4)nc3n3c2sc2ccccc23)cn1 . Reported viability, T/C?
Result string: 12.7

Query string: Look at this compound and give its reported viability, T/C. O=C(c1cc(Cc2n[nH]c(=O)c3ccccc23)ccc1F)N1CCN(C(=O)C2CC2)CC1 + CN(C)c1ccc(Nc2c3ccc(NC(=O)CCN4CCCC4)cc3nc3cc(NC(=O)CCN4CCCC4)ccc23)cc1
Result string: 102

Query string: Form field: reported viability, T/C of COc1cc(C2c3cc4c(cc3C(OC3OC5COC(C)OC5C(O)C3O)C3COC(=O)C23)OCO4)cc(OC)c1O (stereo unspecified) + Cc1cnc(CNC(=O)c2c(=O)c3ccc(N4CCCN(C)CC4)nc3n3c2sc2ccccc23)cn1
Result string: 22.3

Query string: viability, T/C for C#Cc1c(F)ccc2cc(O)cc(-c3ncc4c(N5CC6CCC(C5)N6)nc(OCC56CCCN5CC(F)C6)nc4c3F)c12 (stereo unspecified) + Cc1cnc(CNC(=O)c2c(=O)c3ccc(N4CCCN(C)CC4)nc3n3c2sc2ccccc23)cn1 ?
Result string: 37.4

Query string: // lookup viability, T/C for COc1cc(C2c3cc4c(cc3C(OC3OC5COC(C)OC5C(O)C3O)C3COC(=O)C23)OCO4)cc(OC)c1O (stereo unspecified) + Cc1[nH]c2ccc(F)cc2c1-c1nc2c3cccnc3c3ncccc3c2[nH]1
Result string: 43.2

* * *

- Test system: A375 multi-cell spheroids with HUVEC/MSC, viability
- procedure_summary: Anticancer human tumor A375 cell line growth inhibition [GQUAD];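 further: spheroids exposed to compounds for seven days before readout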
- condition_label: second compound 10 µM; first compound 0.1 µM; hits give low values
- Excerpt: DNA G-quadruplex Stabilizer Agents in Combinations in Complex Spheroids A high-throughput screen of multi-cell type tumor spheroids was designed to identify active combinations of DNA G-quadruplex stabilizer agents and targeted small molecules. […] Compounds. […] If the clinical Cmax for an agent had not been determined, the highest concentration tested was 10 microM. […]
observation_type: viability, T/C (%)
Please give a number only; it is taken to be in %.

Study these solved cases before continuing.
• COc1ccc([C@@H](O)c2cc(-c3ncnc4cc(N5CCOCC5)ccc34)c(F)cc2Cl)nn1 + Cc1[nH]c2ccc(F)cc2c1-c1nc2c3cccnc3c3ncccc3c2[nH]1 = 107
• CC(=O)O[C@H]1C(=O)[C@@]2(C)[C@H]([C@H](OC(=O)c3ccccc3)[C@]3(O)C[C@H](OC(=O)[C@H](O)[C@@H](NC(=O)c4ccccc4)c4ccccc4)C(C)=C1C3(C)C)[C@]1(OC(C)=O)CO[C@@H]1C[C@@H]2O + Cc1[nH]c2ccc(F)cc2c1-c1nc2c3cccnc3c3ncccc3c2[nH]1 = 22.9
• CC1COCCN1c1cc(C2(S(C)(=N)=O)CC2)nc(-c2ccnc3[nH]ccc23)n1 (stereo not given) + CN(C)c1ccc(Nc2c3ccc(NC(=O)CCN4CCCC4)cc3nc3cc(NC(=O)CCN4CCCC4)ccc23)cc1 = 98.3
• CCCS(=O)(=O)Nc1ccc(F)c(C(=O)c2c[nH]c3ncc(-c4ccc(Cl)cc4)cc23)c1F + Cc1[nH]c2ccc(F)cc2c1-c1nc2c3cccnc3c3ncccc3c2[nH]1 = 13.4
• C=CC(=O)N1CCN(c2nc(=O)n(-c3c(C)ccnc3C(C)C)c3nc(-c4c(O)cccc4F)c(F)cc23)C(C)C1 (stereo not given) + Cc1[nH]c2ccc(F)cc2c1-c1nc2c3cccnc3c3ncccc3c2[nH]1 = 99

Now look at this entry.
Query string: Observed viability, T/C on A375 multi-cell spheroids with HUVEC/MSC, viability for C=CCn1c(=O)c2cnc(Nc3ccc(N4CCN(C)CC4)cc3)nc2n1-c1cccc(C(C)(C)O)n1 + Cc1cnc(CNC(=O)c2c(=O)c3ccc(N4CCCN(C)CC4)nc3n3c2sc2ccccc23)cn1 , please.
Result string: 28.9

* * *

- System: A375 multi-cell spheroids with HUVEC/MSC, viability
- procedure_summary: Anticancer human tumor A375 cell line growth inhibition [GQUAD];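 further: spheroids exposed to compounds for seven days before readout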
- condition_label: second compound 3.16 µM; first compound 10 µM; hits give low values
Entries whose viability, T/C is below 60% take TRUE; entries at or above 60% take FALSE.

These solved cases illustrate the format of a correct answer.
• CC1COCCN1c1cc(C2(S(C)(=N)=O)CC2)nc(-c2ccnc3[nH]ccc23)n1 (centres undefined) + Cc1[nH]c2ccc(F)cc2c1-c1nc2c3cccnc3c3ncccc3c2[nH]1 = TRUE
• O=C(NO)c1cnc(N2CCN(S(=O)(=O)c3ccc4ccccc4c3)CC2)nc1 + CN(C)c1ccc(Nc2c3ccc(NC(=O)CCN4CCCC4)cc3nc3cc(NC(=O)CCN4CCCC4)ccc23)cc1 = TRUE
• CC1COCCN1c1cc(-c2ccnn2C)c2ccnc(-c3ccn[nH]3)c2n1 (centres undefined) + Cc1cnc(CNC(=O)c2c(=O)c3ccc(N4CCCN(C)CC4)nc3n3c2sc2ccccc23)cn1 = TRUE

Query string: Quick check: viability, T/C of C=CCn1c(=O)c2cnc(Nc3ccc(N4CCN(C)CC4)cc3)nc2n1-c1cccc(C(C)(C)O)n1 + Cc1[nH]c2ccc(F)cc2c1-c1nc2c3cccnc3c3ncccc3c2[nH]1 under 60%?
Result string: TRUE

Query string: Say whether its viability, T/C is strictly beneath 60%. Entry: COc1cccc2c1C(=O)c1c(O)c3c(c(O)c1C2=O)CC(O)(C(=O)CO)CC3OC1CC(N)C(O)C(C)O1 (centres undefined) + CN(C)c1ccc(Nc2c3ccc(NC(=O)CCN4CCCC4)cc3nc3cc(NC(=O)CCN4CCCC4)ccc23)cc1
Result string: TRUE

Query string: viability, T/C strictly < 60% for this compound? CC1COCCN1c1cc(-c2ccnn2C)c2ccnc(-c3ccn[nH]3)c2n1 (centres undefined) + CN(C)c1ccc(Nc2c3ccc(NC(=O)CCN4CCCC4)cc3nc3cc(NC(=O)CCN4CCCC4)ccc23)cc1
Result string: TRUE

The values you see were collected from PubChem BioAssay AID2060485.
